system: CAKI-1 renal; assay: NCI tumour cell line growth inhibition, 48 h
The reader will find reported TGI values listed item by item below.

Solved entries (count: 4):
O=CC1C(=O)Nc2nc3ccccc3n2C1c1ccccc1 (configuration not stated) ... 48.5 µM
N=C(N)c1ccc(-c2ccc(-c3ccccc3)o2)o1 ... 14.2 µM
C/C(=N\O)c1ccc(Nc2cc(-c3ccccc3)nc3c(O)cccc23)cc1 ... 35 µM
Nc1c(-c2ccc(-c3c(N)[n+]([O-])c4ccccc4[n+]3[O-])cc2)[n+]([O-])c2ccccc2[n+]1[O-] ... 20.3 µM

Task item: Any idea what TGI was measured for "CC1(C)OC(=O)C(c2ccsc2)C(=O)O1" ?
Reply: > 100 µM

Task item: Any idea what TGI was measured for COc1ccccc1NC(=O)C(=O)C(C#N)CC(C)(C)C=O (configuration not stated) ?
Reply: > 100 µM

Task item: Any idea what TGI was measured for "CC1(C)CC(=O)C(/C=N/c2nc(-c3cccc([N+](=O)[O-])c3)cs2)=C(O)C1" ?
Reply: 23.4 µM

Task item: Any idea what TGI was measured for "CCOC(=O)/C(C#N)=C/c1[nH]c(C)c(C)c1C" ?
Reply: > 100 µM

Task item: Any idea what TGI was measured for "CC(C)(C)OC(=O)/C=C/[C@@H](CCC(=O)/C=C/[C@H](/C=C\CCCC(=O)O)NC1(c2ccccc2)c2ccccc2-c2ccccc21)O[Si](C)(C)C(C)(C)C" ?
Reply: 67.8 µM

Task item: Any idea what TGI was measured for "CSc1c(C#N)c(=O)n(N)c2n[nH]c(C)c12" ?
Reply: > 100 µM

Task item: Any idea what TGI was measured for "Nc1ncnc2c1c(-c1ccc(Oc3ccccc3)cc1)nn2C[C@H]1SSC[C@H]1O" ?
Reply: 2.85 µM

Task item: Any idea what TGI was measured for CC1(C)C(=O)C2(N)CCC1C2 (configuration not stated) ?
Reply: > 100 µM

Task item: Any idea what TGI was measured for "N#C[C@H](c1nc2ccccc2[nH]1)c1nc2ccccc2nc1Cl" ?
Reply: 15.3 µM

* * *

The reader will find reported TGI values listed item by item below.
system: XF 498 CNS; assay: NCI tumour cell line growth inhibition, 48 h

Solved entries (count: 5):
CN=C(NC#N)NCc1ccccc1 ... > 100 µM
COc1nc(C(Cl)(Cl)Cl)c(Cl)c(OC)c1Cl ... 54.5 µM
CSc1nc(NC2OC(CO)C(O)C(O)C2O)c(N)c(=O)[nH]1 (stereo unspecified) ... > 100 µM
COc1ccc(/C=C\c2cc(OC)c(OC(C)=O)c(OC)c2)cc1 ... > 100 µM
CC12CCC(C)(c3cc(O)c(O)cc31)c1cc(O)c(O)cc12 ... 34 µM

Task item: Lab request: please report TGI under test system XF 498 CNS for "CC(=O)c1ccc(-c2ccc(C(C)=O)s2)s1"
Reply: > 100 µM

* * *

The reader will find reported TGI values listed item by item below.
system: HCT-116 colon; assay: NCI tumour cell line growth inhibition, 48 h

Solved entries (count: 6):
CCOC(=O)/C(C#N)=C/c1[nH]c(C)c(C)c1C ... > 100 µM
Cc1cc2c(C=O)[nH]nc2c(C#N)c1C ... > 100 µM
Cc1c(OCc2cccc3ccccc23)ccc2c(=O)cc(S)oc12 ... 77.5 µM
Cc1cccc(C)c1NC(=O)/C(CC(=O)CC(c1ccccc1)c1c(O)c2ccccc2oc1=O)=N/O (centres undefined) ... > 100 µM
O=C(O)c1cccc(F)c1C(=O)c1ccc2ccccc2c1 ... > 100 µM
O=C(CCCN1CCC(Nc2ccc(F)cc2)(c2nnnn2C2CCCCC2)CC1)c1ccc(F)cc1 ... 26.1 µM

Task item: Any idea what TGI was measured for "CNC(=S)c1nnsc1N" ?
Reply: > 100 µM

Task item: Any idea what TGI was measured for Cc1ccc(S(=O)(=O)N/N=C2/C3CC4CCC2C4C3)cc1 (centres undefined) ?
Reply: > 100 µM

Task item: Any idea what TGI was measured for "CCOC(=O)C(/C=N/C(N)=S)=C(/O)c1ccccc1" ?
Reply: > 100 µM

* * *

The reader will find reported GI50 values listed item by item below.
test system: SNB-75 CNS; test: NCI tumour cell line growth inhibition, 48 h

Task item: Any idea what GI50 was measured for "CCCCCCCCCCCC(=O)[O][Sn]([CH2]CCC)([CH2]CCC)[CH2]CCC" ?
Reply: 28.2 nM

Task item: Any idea what GI50 was measured for "O=c1c(Br)ccc(Br)cc1Br" ?
Reply: 1830 nM

Task item: Any idea what GI50 was measured for "COc1ccc(-c2nn(C(=O)c3cc(OC)c(OC)c(OC)c3)c3cc(N)ccc23)cc1" ?
Reply: < 12.2 nM

Task item: Any idea what GI50 was measured for "N=C(N)c1ccc(-c2ccc(-c3ccccc3)o2)o1" ?
Reply: 1600 nM

Task item: Any idea what GI50 was measured for "CCOc1ccc(-n2cc(-c3ccc(N(C)C)cc3)[n+]3c2CCCCC3)cc1" ?
Reply: 906 nM

* * *

test system: SK-MEL-28 melanoma; assay: NCI tumour cell line growth inhibition, 48 h; in the data active means GI50 below about 0.43 µM; inactive means the rest
Pick one: yes (1) for active, no (0) for inactive

Worked examples, 6 compounds total:
O=C1COCCN1c1ccc(NCc2cn(Cc3ccc(F)cc3)c3ccccc23)cc1 ... no (0)
Nc1c(S(=O)(=O)O)cc2c(c1Cl)C(=O)c1ccccc1C2=O ... no (0)
COc1ccc2c(c1)cn1c3ccc(OC)cc3[nH]c(=O)c21 ... yes (1)
CCCCCCOc1ccc(/C=N/Nc2cc(C)nc3ccc(Br)cc23)cc1 ... no (0)
COc1cc(Nc2nccc(-c3cnn4ncccc34)n2)cc(OC)c1 ... yes (1)
COc1ccc(/C=N/C2=C(C#N)C(c3ccccc3)c3ccc4ccccc4c3O2)cc1 (centres undefined) ... no (0)

Task item: For "C=CCOc1ccc2c(c1)CC[C@@H]1[C@@H]2CC[C@]2(C)C(=O)/C(=N/O)C[C@@H]12" , which call appears in the assay record?
Reply: no (0)

Task item: For "Cn1cc(C2=C(c3cn(CCCN/C(N)=N\[N+](=O)[O-])c4ccccc34)C(=O)NC2=O)c2ccccc21" , which call appears in the assay record?
Reply: no (0)

Task item: For "O=C(Nc1ccc(-n2cc(-c3ccncc3)c(-c3ccc(Cl)c(O)c3)n2)cc1)c1ccc(Cl)c(C(F)(F)F)c1" , which call appears in the assay record?
Reply: no (0)

* * *

test system: NCI-H522 lung; assay: NCI tumour cell line growth inhibition, 48 h
The reader will find reported GI50 values listed item by item below.

Solved entries (count: 4):
COc1ccc(/C=N/C2=C(C#N)C(c3ccccc3)c3ccc4ccccc4c3O2)cc1 (stereo not given) ... 0.128 µM
Cc1nc(N(C)C)nc(-c2cccc(-c3ccn(CCN(C)C)n3)c2)c1C ... > 20 µM
Nc1ncnc2c1c(-c1ccc(Oc3ccccc3)cc1)nn2C[C@H]1SSC[C@H]1O ... 0.953 µM
O=[N+]([O-])c1ccc(N/N=C\c2ccc(O)cc2O)nc1 ... 10.8 µM

Task item: Any idea what GI50 was measured for "Cc1cc(=O)[nH]c2c1C(=O)C(=O)C=C2" ?
Reply: > 100 µM

Task item: Any idea what GI50 was measured for "C=C(C=O)[C@@H]1CC=C(C=O)CC1" ?
Reply: 37.8 µM

* * *

system: HS 578T breast; test: NCI tumour cell line growth inhibition, 48 h
measure_name: TGI

Solved entries (count: 3):
O=[N+]([O-])c1ccc(N/N=C\c2ccc(O)cc2O)nc1 ... > 100 µM
CN1CCN(C(=S)N(C(=O)c2ccc(Cl)cc2)C2CCCCC2)CC1 ... > 100 µM
Nc1nc(-c2ccccc2Cl)cc(-c2ccc(Cl)cc2Cl)n1 ... 60.7 µM

Turning now to a further record.
Task item: Any idea what TGI was measured for "NCCCCNCCCNC(=O)c1csc(-c2nc(CCN)sc2Cl)n1" ?
Reply: > 100 µM

* * *

system: TK-10 renal; assay: NCI tumour cell line growth inhibition, 48 h
measure_name: TGI

Solved entries (count: 9):
O=C1CN2CCN(CC2)CC(=O)Nc2ccc(cc2)S(=O)(=O)c2ccc(cc2)NC(=O)CN2CCN(CC2)CC(=O)Nc2ccc(cc2)S(=O)(=O)c2ccc(cc2)N1 ... > 100 µM
O=C(c1ccccc1)C(c1ccccc1)C1(O)C(=O)Nc2ccc(Br)cc21 (stereo not given) ... > 100 µM
CCN(CC)C(=O)CCNC(C)Cc1c[nH]c2ccccc12 (stereo not given) ... > 100 µM
CC1(C)C/C=C\CCC(O)C(O)CCC(C)(C)C1=O (stereo not given) ... > 100 µM
CC(=O)NC1C(OCc2ccccc2)OC(COC(=O)CCCCCCCCCCNC(=O)CCNc2ccc([N+](=O)[O-])c3[nH]c4ccc(O)cc4c(=O)c23)C(O)C1OC(C)C(=O)N[C@H](C(=O)N[C@H](CCC(=O)O)C(N)=O)C(C)C (stereo not given in full) ... > 100 µM
O=Cc1ccc(Oc2c3ccccc3nc3ccccc23)cc1 ... 19.5 µM
CC(=O)Oc1cc(OC(C)=O)c(OC(C)=O)c2c1CC1C(=O)C3(CCc4ccccc43)C(=O)C1C2 (stereo not given) ... 31.7 µM
c1ccc2c(CCNC3=NCCO3)cccc2c1 ... > 10 µM
COc1ccc(/C=C/c2cnnc3ccccc23)cc1OC ... > 10 µM

Turning now to a further record.
Task item: Any idea what TGI was measured for "C[C@H](N)C(=O)Nc1ccc(-c2nc3ccccc3s2)cc1Cl" ?
Reply: 14.7 µM
